Attribution: ChEMBL document CHEMBL4007451

# target of assay: Alpha-2C adrenergic receptor (Homo sapiens, UniProt P18825)
# Sequence (P18825 whole entry): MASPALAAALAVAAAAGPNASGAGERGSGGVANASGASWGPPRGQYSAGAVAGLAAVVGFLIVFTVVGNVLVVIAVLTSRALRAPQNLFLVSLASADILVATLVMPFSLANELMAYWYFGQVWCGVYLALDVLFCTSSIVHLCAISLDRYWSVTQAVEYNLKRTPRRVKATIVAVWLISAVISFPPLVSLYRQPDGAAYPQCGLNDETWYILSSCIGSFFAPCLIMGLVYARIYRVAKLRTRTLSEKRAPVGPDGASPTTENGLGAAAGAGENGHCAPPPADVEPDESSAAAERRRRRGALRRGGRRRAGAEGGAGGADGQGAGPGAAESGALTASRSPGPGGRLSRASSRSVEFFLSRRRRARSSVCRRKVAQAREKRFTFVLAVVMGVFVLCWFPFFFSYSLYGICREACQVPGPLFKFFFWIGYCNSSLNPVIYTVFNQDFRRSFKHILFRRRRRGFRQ
measurement type: Ki

Identify measured Ki associated with c1c2c(cc3c1OCO3)CNCC2 < 100 nM

====

# method notes: Displacement of [3H]ketanserin from rat brain 5HT2 receptor
Below, each of the molecules is paired with its reported Ki value.
Form field: result (number plus unit)

{"columns": ["molecule", "measurement type", "result"],
 "data": [
  ["C[C@@H](N)Cc1c[nH]c2ccccc12", "Ki", "5 µM"]
]}

Identify measured Ki associated with CC(N)Cc1c[nH]c2ccccc12 (stereo not drawn) 3.1 µM

Identify measured Ki associated with C[C@H](N)Cc1c[nH]c2ccccc12 2.5 µM

====

# target of assay: Alpha-2A adrenergic receptor (Homo sapiens, UniProt P08913)
# Sequence (P08913 whole entry): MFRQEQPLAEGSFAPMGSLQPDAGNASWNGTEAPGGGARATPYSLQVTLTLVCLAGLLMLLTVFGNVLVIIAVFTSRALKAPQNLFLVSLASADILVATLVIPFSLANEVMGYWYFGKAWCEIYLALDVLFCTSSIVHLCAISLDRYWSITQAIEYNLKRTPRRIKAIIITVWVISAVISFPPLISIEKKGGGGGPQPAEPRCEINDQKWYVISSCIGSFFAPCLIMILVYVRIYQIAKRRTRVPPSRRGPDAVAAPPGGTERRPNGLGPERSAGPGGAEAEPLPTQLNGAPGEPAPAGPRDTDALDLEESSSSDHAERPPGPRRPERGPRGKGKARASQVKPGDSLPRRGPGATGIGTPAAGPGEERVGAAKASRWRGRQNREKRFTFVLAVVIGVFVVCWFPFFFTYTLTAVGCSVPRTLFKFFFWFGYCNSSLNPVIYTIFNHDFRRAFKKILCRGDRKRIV
measurement type: Ki

Identify measured Ki associated with c1c2c(cc3c1OCO3)CNCC2 < 100 nM
